# target_or_system: PAD4 (Homo sapiens)
# Sequence (Q9UM07 whole entry): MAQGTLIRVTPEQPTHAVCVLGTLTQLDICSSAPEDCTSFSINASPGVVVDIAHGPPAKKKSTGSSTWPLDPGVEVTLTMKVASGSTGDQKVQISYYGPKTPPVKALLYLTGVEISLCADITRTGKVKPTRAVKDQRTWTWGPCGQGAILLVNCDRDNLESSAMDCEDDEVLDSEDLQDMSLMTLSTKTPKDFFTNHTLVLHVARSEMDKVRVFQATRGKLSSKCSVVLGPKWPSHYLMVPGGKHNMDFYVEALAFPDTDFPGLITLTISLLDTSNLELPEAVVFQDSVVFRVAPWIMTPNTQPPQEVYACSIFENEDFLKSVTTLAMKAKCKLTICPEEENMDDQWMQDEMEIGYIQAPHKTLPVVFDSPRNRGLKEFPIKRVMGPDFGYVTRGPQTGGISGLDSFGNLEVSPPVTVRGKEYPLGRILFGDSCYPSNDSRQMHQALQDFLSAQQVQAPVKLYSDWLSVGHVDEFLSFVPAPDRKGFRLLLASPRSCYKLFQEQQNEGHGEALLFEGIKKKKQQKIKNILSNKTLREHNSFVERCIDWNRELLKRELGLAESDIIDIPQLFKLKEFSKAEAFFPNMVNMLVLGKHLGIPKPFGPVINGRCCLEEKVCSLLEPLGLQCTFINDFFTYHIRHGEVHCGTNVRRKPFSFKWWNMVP
readout: IC50

// solved cases for IC50 follow
The value of IC50 measured for the molecule COc1ccc(Cl)cc1C(=O)N[C@@H](CCCNC(=N)CF)C(=O)NCc1ccc(Cl)cc1 [EX-6] turned out to be < 500 nM

Reported IC50 ( COc1ccc(-c2ccccc2)cc1C(=O)N[C@@H](CCCNC(=N)CF)C(=O)NCc1cccc(Cl)c1 [EX-9] ) = 500 to 10000 nM

Record COc1ccc(Cl)cc1C(=O)N[C@@H](CCCNC(=N)CF)C(=O)NCc1cccc(Cl)c1 [EX-14] . Reported IC50: < 500 nM

// field: IC50; key: COc1ccc(Cl)cc1C(=O)N[C@@H](CCCNC(=N)CF)C(=O)NCc1ccccc1Cl [EX-15] ; value = < 500 nM

New cases:
Documented IC50 of COc1ccc(CNC(=O)[C@H](CCCNC(=N)CF)NC(=O)c2cc(Cl)ccc2OC)cc1 [EX-17] : < 500 nM

====

# target_or_system: PAD4 (Homo sapiens)
pIC50: −log10 of the molar value.
readout: pIC50

Worked set:
Input COc1ccccc1CNC(=O)[C@H](CCCNC(=N)CF)NC(=O)c1cc(-c2ccccc2)ccc1OC . Output pIC50: > 6.30

Reported pIC50 of COc1ccc(-c2ccccc2)cc1C(=O)N[C@@H](CCCNC(=N)CF)C(=O)NCc1ccccc1 : > 6.30

Briefly, pIC50 measured for COc1cc2c(OC)cccc2cc1C(=O)N[C@@H](CCCNC(=N)CF)C(=O)NCc1cccc(NC(=O)CCCNC(=O)CCCC[C@@H]2SC[C@@H]3NC(=O)N[C@@H]32)c1 : > 6.30

For record COc1cc2c(OC)cccc2cc1C(=O)N[C@@H](CCCNC(=N)CF)C(=O)NCc1ccc(F)cc1 the listed pIC50 is > 6.30

compound COc1cccc(OC)c1C(=O)N[C@@H](CCCNC(=N)CF)C(=O)NCc1ccc(Cl)cc1 , pIC50 observed: > 6.30

Noted for COc1ccc(-c2ccccc2)cc1C(=O)N[C@@H](CCCNC(=N)CF)C(=O)NCc1cccc(C)c1 : its pIC50 reads 5.00 to 6.30

// pIC50 value for COc1ccc(-c2cccc(Cl)c2)cc1C(=O)N[C@@H](CCCNC(=N)CF)C(=O)NCc1ccccc1 : 5.00 to 6.30

Per the record, COc1cc2c(OC)cccc2cc1C(=O)N[C@@H](CCCNC(=N)CF)C(=O)NCc1cccc(Cl)c1 has pIC50 of > 6.30

// below: pIC50 requested for another compound
pIC50 for COc1ccc(Cl)cc1C(=O)N[C@@H](CCCNC(=N)CF)C(=O)NCc1ccc(C)cc1 is > 6.30

Data origin: patent US12606526B2
